From: PubChem BioAssay (EPA / NIEHS)

# Test System: Nuclear receptor subfamily 1 group I member 2 (Homo sapiens)
# Assay Text: ATG_PXR_TRANS: Attagene TRANS-FACTORIAL HepG2 Assay for human Pregnane X Receptor (PXR) (AID 2283008)
# Description: ATG_TRANS is a cell-based, multiplexed-readout assay that uses HepG2, a human liver cell line, with measurements taken at 24 hours after chemical dosing in a 24-well plate.ATG_PXR_TRANS is one of 30 assay component(s) measured or calculated from the ATG_TRANS assay. […] This assay endpoint, ATG_PXR_TRANS, was analyzed in the positive analysis fitting direction relative to DMSO as the negative control and baseline of activity. […]
Inconclusive results are not listed. Active and inactive are the calls of the source. Rule for the calls: active = hit-call score of the fitted dose curve at least 0.9, where 1 is the maximum; inconclusive = response in the unintended direction; inactive = score below 0.9.
Outcome codes: class 1 for active, class 0 for inactive

Molecule | Label
CCOc1ccc2c(c1)C(C)=CC(C)(C)N2 | class 1
CC(CO)OC(C)CO (configuration not stated) (tested in a mixture with another compound) | class 0
CN1CCCC1=O | class 0
CNC(=O)[C@H]1O[C@@H](n2cnc3c(NCc4cc(Cl)ccc4OCc4cc(C)no4)ncnc32)[C@H](O)[C@@H]1N | class 0
C=CCOC(=O)c1ccccc1C(=O)OCC=C | class 0
Cc1ccccc1Cl | class 0
Cc1ccc(N(C)C)cc1 | class 0
